target: Ataxin-2 (Homo sapiens) (UniProt Q99700); assay: qHTS for Inhibitors of ATXN expression.; assay type: functional
Sequence (Q99700 whole entry): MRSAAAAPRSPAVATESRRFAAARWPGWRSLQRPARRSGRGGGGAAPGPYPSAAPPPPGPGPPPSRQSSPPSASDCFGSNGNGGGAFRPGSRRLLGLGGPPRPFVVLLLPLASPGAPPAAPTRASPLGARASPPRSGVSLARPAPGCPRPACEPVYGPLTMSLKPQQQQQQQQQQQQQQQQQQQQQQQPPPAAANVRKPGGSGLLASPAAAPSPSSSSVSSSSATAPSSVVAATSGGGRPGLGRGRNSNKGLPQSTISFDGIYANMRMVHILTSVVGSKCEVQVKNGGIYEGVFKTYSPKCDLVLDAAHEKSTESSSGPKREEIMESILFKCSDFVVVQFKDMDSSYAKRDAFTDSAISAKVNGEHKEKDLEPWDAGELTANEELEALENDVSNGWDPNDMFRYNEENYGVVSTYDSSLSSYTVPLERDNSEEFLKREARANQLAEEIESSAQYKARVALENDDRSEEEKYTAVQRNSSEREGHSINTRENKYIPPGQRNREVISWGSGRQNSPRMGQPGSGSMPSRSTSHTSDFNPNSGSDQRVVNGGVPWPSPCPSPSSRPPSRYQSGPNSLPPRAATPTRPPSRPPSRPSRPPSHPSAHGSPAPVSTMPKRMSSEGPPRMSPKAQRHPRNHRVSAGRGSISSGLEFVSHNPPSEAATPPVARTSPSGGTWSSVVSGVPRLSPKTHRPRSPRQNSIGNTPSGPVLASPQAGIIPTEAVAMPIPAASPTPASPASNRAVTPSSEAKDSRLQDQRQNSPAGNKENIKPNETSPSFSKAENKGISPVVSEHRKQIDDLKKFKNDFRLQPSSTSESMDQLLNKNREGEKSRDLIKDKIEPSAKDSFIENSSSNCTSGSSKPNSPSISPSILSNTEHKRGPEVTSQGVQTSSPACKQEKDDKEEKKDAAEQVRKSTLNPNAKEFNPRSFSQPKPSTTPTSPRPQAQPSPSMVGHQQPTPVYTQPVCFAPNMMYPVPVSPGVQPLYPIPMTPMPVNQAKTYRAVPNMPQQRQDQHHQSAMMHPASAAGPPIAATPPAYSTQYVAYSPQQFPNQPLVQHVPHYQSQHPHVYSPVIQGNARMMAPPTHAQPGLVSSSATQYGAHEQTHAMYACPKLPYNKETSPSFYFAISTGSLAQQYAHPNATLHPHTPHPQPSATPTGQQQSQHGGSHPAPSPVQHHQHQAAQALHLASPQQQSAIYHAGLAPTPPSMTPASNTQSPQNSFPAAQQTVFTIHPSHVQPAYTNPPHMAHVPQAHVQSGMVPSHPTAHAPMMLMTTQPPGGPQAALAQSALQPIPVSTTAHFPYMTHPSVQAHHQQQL
In all, about 400,000 compounds went through this assay and about 2,100 (0.53%) were called active. Not shown: some 14% with an inconclusive outcome. No rule for the calls is given here. For the sample, actives were picked, then their nearest neighbours and some compounds at random.
Answer with one of the outcomes given here: active, inactive

Write down the call the test reported for this molecule. Item: CCCCCCSc1ccc(-c2nc3cnccn3c2NC2CCCCC2)cc1 inactive

Write down the call the test reported for this molecule. Item: COc1ccc(N2C(=O)/C(=C\NNS(=O)(=O)c3ccc(C)cc3)c3ccccc3C2=O)cc1OC inactive

Write down the call the test reported for this molecule. Item: CCCCNC(=O)CN1C(=O)c2cccc(N)c2C1=O inactive

Write down the call the test reported for this molecule. Item: Nc1ccc2c(c1)C/C(=C/c1ccco1)C2=O inactive

Write down the call the test reported for this molecule. Item: Cc1ccc2c(c1)OC(c1ccc3c(c1)OCCO3)CC2=O (stereo unspecified) inactive

Write down the call the test reported for this molecule. Item: O=C(NCCc1cccc(Cl)c1)c1ccc(OC2CCN(Cc3ccccn3)CC2)cc1 active

---

biological target: Ataxin-2 (Homo sapiens) (UniProt Q99700); test: qHTS for Inhibitors of ATXN expression.; assay type: functional
In all, about 400,000 compounds went through this assay and about 2,100 (0.53%) were called active. About 14% were inconclusive and are not listed. No rule for the calls is given here. The sample as a whole holds a higher share of actives than the screen did.
Answer with one of the outcomes given here: yes (1) = active, no (0) = inactive

Write down the call the test reported for this molecule. Item: O=c1c2ccccc2oc2ccc(C#CC3(O)CCCCC3)cc12 yes (1)

Write down the call the test reported for this molecule. Item: CC1=CC(=C(C#N)c2nc3ccccc3s2)C=C(C)N1c1ccc(F)cc1F no (0)

Write down the call the test reported for this molecule. Item: CC(C)NS(=O)(=O)c1ccc(NC(=O)C(C)OC(=O)C2CCC2)cc1 (stereo unspecified) no (0)

Write down the call the test reported for this molecule. Item: Cc1ccc(S(=O)(=O)Nc2cccc(N(C)S(C)(=O)=O)c2)cc1[N+](=O)[O-] no (0)

Write down the call the test reported for this molecule. Item: O=CN(c1ccccc1)c1ccc2ccccc2c1 no (0)

Write down the call the test reported for this molecule. Item: Nc1c(C(=O)Nc2ccc(Br)cc2)sc2nc(-c3ccco3)ccc12 no (0)

Write down the call the test reported for this molecule. Item: Cc1ccc(-n2nc(C)c(NC(=O)CCl)c2C)cc1 yes (1)

Write down the call the test reported for this molecule. Item: CCN(CC)CCNC(=O)c1cc2c(-c3ccc(Cl)cc3)nn(C)c2s1 yes (1)

Write down the call the test reported for this molecule. Item: COc1ccc(-c2c(NC(=O)c3ccco3)n(-c3ccc(C)cc3)nc(C)c2=O)cc1 no (0)

Write down the call the test reported for this molecule. Item: Cc1cc(C)n(-c2ccc(C(=O)NCC(=O)Nc3cc(Cl)ccc3Cl)cc2)n1 no (0)

Write down the call the test reported for this molecule. Item: CCOc1ccc2nc(NCCCNS(=O)(=O)c3ccc(F)cc3)c(C#N)cc2c1 no (0)

Write down the call the test reported for this molecule. Item: CCN(CC)CCCNC(=O)c1cn(-c2cccc(OC)c2)c(=O)c2ccccc12 no (0)

Write down the call the test reported for this molecule. Item: Cc1nn(-c2ccccc2)c(C)c1C(=O)OCC(=O)Nc1ccccc1Cl no (0)

Write down the call the test reported for this molecule. Item: CCN(CC)CCNC(=O)c1cc2cc(Br)ccc2s1 no (0)

Write down the call the test reported for this molecule. Item: COc1cc2c(C#CCCO)c(-c3ccc(C#N)cc3)oc(=O)c2cc1OC no (0)

Write down the call the test reported for this molecule. Item: Nc1ccc(C#Cc2ccc3c(=O)c4ccccc4oc3c2)cc1 no (0)

Write down the call the test reported for this molecule. Item: CN(CC(=O)Nc1cccc(C(F)(F)F)c1)S(=O)(=O)c1ccc2[nH]c3c(c2c1)CCCC3 yes (1)

Write down the call the test reported for this molecule. Item: Cc1nn(Cc2ccccc2Cl)c(C)c1C(=O)N(C)CC(=O)Nc1cccc(F)c1 no (0)

Write down the call the test reported for this molecule. Item: Cc1cc(OCC(=O)N2CCC(O)(c3ccc(Cl)cc3)CC2)c2c(C)cc(=O)oc2c1 no (0)

Write down the call the test reported for this molecule. Item: Cc1ccc2c(c1)C(c1ccccc1)N(C(=O)COc1ccc(Cl)cc1Cl)CC(=O)N2 (stereo unspecified) yes (1)

Write down the call the test reported for this molecule. Item: Cc1ccccc1C1(CC(=O)N2CCCC2c2nccs2)CC(=O)N(C2CCCC2)C1=O (stereo unspecified) no (0)
